Quick reference: EC50 of the listed items.
- target under test: T1, hu_CXCR2_N-term (1-17)-BSA (human; bovine, coupled to carrier protein BSA; C-terminal cysteine introduced to enable coupling)
- T1 construct: Synthetic linear peptide chemically coupled to the carrier; also called CXCR2_aa1-17_BSA; CXCR2 aa1-17 BSA
- T1 sequence (P02769 25-607 limits assumed): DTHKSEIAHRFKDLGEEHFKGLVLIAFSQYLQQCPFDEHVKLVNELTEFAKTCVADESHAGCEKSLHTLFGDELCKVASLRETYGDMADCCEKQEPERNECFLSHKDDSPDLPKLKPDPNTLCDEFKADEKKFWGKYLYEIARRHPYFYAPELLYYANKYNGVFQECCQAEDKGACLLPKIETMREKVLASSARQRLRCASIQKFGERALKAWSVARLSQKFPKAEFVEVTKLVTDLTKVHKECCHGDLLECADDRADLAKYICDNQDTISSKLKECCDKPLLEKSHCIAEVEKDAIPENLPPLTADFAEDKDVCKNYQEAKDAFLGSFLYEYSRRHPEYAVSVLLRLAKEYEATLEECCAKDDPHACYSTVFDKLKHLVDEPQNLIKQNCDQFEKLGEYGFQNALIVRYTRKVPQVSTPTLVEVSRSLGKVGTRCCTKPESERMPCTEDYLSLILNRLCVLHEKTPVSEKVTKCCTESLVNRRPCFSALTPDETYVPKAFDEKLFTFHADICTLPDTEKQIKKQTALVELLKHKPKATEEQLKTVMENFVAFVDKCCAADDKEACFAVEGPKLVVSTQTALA
- assay details: ELISA, coated peptide-BSA, Fab
recorded metric: EC50 (nM)

[
  {
    "binder": "CX2-Mab #5 (Fab format) (Fab, V domains shown) VH: EVQLLESGGGLVQPGGSLRLSCAASGFTFNSNAMSWVRQAPGKGLEWVSFISYSGSHTYYADSVKGRFTISRDNSKNTLYLQMNSLRAEDTAVYYCARYTRFLSRPAFDPWGQGTLVTVSS VL: DIVLTQPPSVSGAPGQRVTISCTGSSSNIGAGYDVHWYQQLPGTAPKLLIYYNSKRPSGVPDRFSGSKSGTSASLAITGLQAEDEADYYCGAYDRKMNSYVFGGGTKLTVLG",
    "measured": 0.6
  },
  {
    "binder": "CX2-Mab #6 (Fab format) (Fab, V domains shown) VH: EVQLLESGGGLVQPGGSLRLSCAASGFTFSSYTMSWVRQAPGKGLEWVSAIHSSGSSTYYADSVKGRFTISRDNSKNTLYLQMNSLRAEDTAVYYCARVPAYYGFDHWGQGTLVTVSS VL: DIELTQPPSVSVSPGQTASITCSGDSLGAFYVHWYQQKPGQAPVLVIYRTNNRPSGIPERFSGSNSGNTATLTISGTQAEDEADYYCASYASRNRVFGGGTKLTVLG",
    "measured": 1.3
  },
  {
    "binder": "CX2-Mab #2 (Fab format) (Fab, V domains shown) VH: QVQLVQSGAEVKKPGASVKVSCKASGYTFSRYAMHWVRQAPGQGLEWMGVINPYNGNTRYAQKFQGRVTMTRDTSISTAYMELSRLRSEDTAVYYCARGSHIQAGAFDYWGQGTLVTVSS VL: DIQMTQSPSSLSASVGDRVTITCRASQGINNRLNWYQQKPGKAPKLLIYDGSSLQSGVPSRFSGSGSGTDFTLTISSLQPEDFATYYCQQYIHFPVTFGQGTKVEIKR",
    "measured": 3.6
  },
  {
    "binder": "CX2-Mab #1 (Fab format) (Fab, V domains shown) VH: QVQLVQSGAEVKKPGSSVKVSCKASGGTFSSYAISWVRQAPGQGLEWMGGIIPIVGEAKYAQKFQGRVTITADESTSTAYMELSSLRSEDTAVYYCARDSSGYDGYYAFAYWGQGTQVTVSS VL: DIVLTQPPSVSGAPGQRGTISCSGSSSNIGSSSVNWYQQLPGTAPKLLIYRNNQRPSGVPDRFSGSKSGTSASLAITGLQAEDEADYYCGATDFSANQVVFGGGTKLTVLG",
    "measured": 6.1
  },
  {
    "binder": "CX2-Mab #3 (Fab format) (Fab, V domains shown) VH: EVQLLESGGGLVQPGGSLRLSCAASGFTFSSYWMSWVRQAPGKGLEWVSVISYSGSETFYADSVKGRFTISRDNSKNTLYLQMNSLRAEDTAVYYCARGRVGYAFDYWGQGTLVTVSS VL: DIVLTQPPSVSGAPGQRVTISCSGSSSNIGVNYVNWYQQLPGTAPKLLIYSNNQRPSGVPDRFSGSKSGTSASLAITGLQAEDEADYYCQSRASGFYSVVFGGGTKLTVLG",
    "measured": 4.7
  },
  {
    "binder": "CX2-Mab #4 (Fab format) (Fab, V domains shown) VH: EVQLLESGGGLVQPGGSLRLSCAASGFTFSSNGMSWVRQAPGKGLEWVSAISSSGSKTYYADSVKGRFTISRDNSKNTLYLQMNSLRAEDTAVYYCARGYGFDVWGQGTLVTVSS VL: DIVLTQPPSVSGAPGQRVTISCSGSSSNIGVNIVNWYQQLPGTAPKLLIYSTSNRPSGVPDRFSGSKSGTSASLAITGLQAEDEADYYCATRDGISKSVVFGGGTKLTVLG",
    "measured": 0.8
  }
]
